Target: RIPK2 and XIAP protein-protein interaction (Homo sapiens)
Construct: the N-terminus of full-length RIPK2 was appended with the HaloTag fusion protein
Sequence (O43353 whole entry, the tested form may be a part): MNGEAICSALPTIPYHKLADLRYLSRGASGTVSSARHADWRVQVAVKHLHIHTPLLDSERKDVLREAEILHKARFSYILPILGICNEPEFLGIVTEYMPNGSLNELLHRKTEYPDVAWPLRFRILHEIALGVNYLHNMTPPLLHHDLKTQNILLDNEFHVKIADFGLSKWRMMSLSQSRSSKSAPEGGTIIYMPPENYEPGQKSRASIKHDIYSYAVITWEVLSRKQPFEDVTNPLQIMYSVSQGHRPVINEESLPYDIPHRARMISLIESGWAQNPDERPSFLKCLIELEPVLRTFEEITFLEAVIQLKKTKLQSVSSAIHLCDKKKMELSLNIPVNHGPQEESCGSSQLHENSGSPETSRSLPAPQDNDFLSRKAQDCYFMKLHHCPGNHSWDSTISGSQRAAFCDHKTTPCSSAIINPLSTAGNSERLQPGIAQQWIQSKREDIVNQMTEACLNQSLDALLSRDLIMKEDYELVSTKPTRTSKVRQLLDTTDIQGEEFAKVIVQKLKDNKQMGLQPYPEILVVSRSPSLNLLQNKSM
Test: Inhibition of the interaction of RIPK2 with XIAP (NanoBRET in HEK293T cells)
Conditions: RIPK2 HaloTag / XIAP NanoLuc, read-out: NanoBRET Scaffolding IC50
Description: An assay measuring the RIPK2 and XIAP protein-protein interaction was generated using the NanoBRET protein:protein interaction system (Promega) which measures the energy transfer from a bioluminescent protein donor (NanoLuc fusion protein) to a fluorescent protein acceptor (Halotag fusion protein). In this assay, the C-terminus of full-length XIAP was appended with the NanoLuc fusion protein and the N-terminus of full-length RIPK2 was appended with the HaloTag fusion protein. […]
property: IC50 (nM)

molecule | measuredValue
Cc1cc(CC(=O)Nc2cnn(C(C)(C)C)c2)ccc1Oc1ccnc2ccc(CS(C)(=O)=O)cc12 | 301
Cc1cc(CC(=O)Nc2cnn(C(C)(C)C)c2)ccc1Oc1ccnc2ccc(S(=N)(=O)C(C)C)cc12 (single isomer, unassigned) [Compound 548] | 108
Cc1cc(CC(=O)Nc2cnn(C(C)(C)C)c2)c(F)cc1Oc1ccnc2ccc(-c3ncncc3C)cc12 | 38.7
